Each entry below carries its reported IC50.
study target: EP2 (Homo sapiens, UniProt P43116)
Sequence (P43116 whole entry): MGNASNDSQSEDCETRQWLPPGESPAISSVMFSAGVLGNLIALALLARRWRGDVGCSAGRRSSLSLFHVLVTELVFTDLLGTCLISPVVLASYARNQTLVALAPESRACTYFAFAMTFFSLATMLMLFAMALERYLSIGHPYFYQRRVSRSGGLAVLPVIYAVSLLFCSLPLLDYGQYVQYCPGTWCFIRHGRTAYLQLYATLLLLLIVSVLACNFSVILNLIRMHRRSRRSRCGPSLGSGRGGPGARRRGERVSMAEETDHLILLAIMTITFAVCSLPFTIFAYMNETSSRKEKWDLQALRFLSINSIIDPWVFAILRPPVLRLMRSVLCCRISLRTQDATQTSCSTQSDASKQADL

compound | val
COc1c(Cl)cc(C(=O)NC2CC3(CC(CC(=O)O)C3)C2)c2c1cnn2Cc1ccc(-c2ccccc2)cc1 (centres unmarked) | < 25 nM
O=C(O)CC1CC2(C1)CC(NC(=O)c1cc(OC(F)F)cc3cnn(Cc4ccc(-c5ccccc5)cc4)c13)C2 (centres unmarked) | < 25 nM

Hi! What's the reported IC50 for COc1ccc2cc(Cn3ncc4c(Cl)ccc(C(=O)N[C@H]5CC6(C5)C[C@H](C(=O)O)C6)c43)ccc2n1 (some centres unmarked) on EP2 (Homo sapiens, UniProt P43116)?
< 25 nM

Hi! What's the reported IC50 for CCOc1cc(-c2ccc(C(C)n3ccc4c(F)ccc(C(=O)NC5CC6(C5)CC(C(=O)O)C6)c43)cc2)ccn1 (single isomer, unassigned) [Example 129] on EP2 (Homo sapiens, UniProt P43116)?
61 nM

Hi! What's the reported IC50 for COc1ccc2ccc(Cn3ccc4c(F)ccc(C(=O)NC5CC6(C5)CC(C(=O)O)C6)c43)cc2c1 (centres unmarked) on EP2 (Homo sapiens, UniProt P43116)?
< 25 nM

Hi! What's the reported IC50 for CCOc1cc(-c2ccc(C(C)n3ncc4c(Cl)ccc(C(=O)NC5CC6(C5)CC(C(=O)O)C6)c43)cc2)ccn1 (single isomer, unassigned) [Example 131] on EP2 (Homo sapiens, UniProt P43116)?
< 25 nM

Hi! What's the reported IC50 for CCOc1ncc(C(=O)NC2CC3(C2)CC(C(=O)O)C3)c2c1ccn2Cc1ccc(-c2ccccc2)cc1 (centres unmarked) on EP2 (Homo sapiens, UniProt P43116)?
57 nM

Hi! What's the reported IC50 for CCOc1cc(-c2ccc(C(C)n3ccc4c(F)ccc(C(=O)NC5CC6(C5)CC(C(=O)O)C6)c43)cc2)ccn1 (racemic) [Example 118] on EP2 (Homo sapiens, UniProt P43116)?
31 nM

Hi! What's the reported IC50 for CN(C)c1cc(-c2ccc(Cn3ccc4c(F)ccc(C(=O)NC5CC6(C5)CC(C(=O)O)C6)c43)cc2)ccn1 (centres unmarked) on EP2 (Homo sapiens, UniProt P43116)?
78 nM

Hi! What's the reported IC50 for COc1ccc2cc(Cn3ccc4c(F)ccc(C(=O)NC5CC6(C5)CC(C(=O)O)C6)c43)ccc2c1 (centres unmarked) on EP2 (Homo sapiens, UniProt P43116)?
< 25 nM

* * *

study target: UniProtKB P35408
assay protocol: Functional calcium flux assay, EP4
particulars: stably transfected HEK293 cells; PGE2 10 nM; read-out: EP4 Ca2+-flux assay IC50
experimental endpoint: IC50 (nM)

molecule | IC50 / nM
COc1cccc(-c2ccc(C(C)n3ncc4cccc(C(=O)NC5CC6(C5)CC(C(=O)O)C6)c43)cc2)c1 (racemic) | 1.3

[a] COc1cccc(-c2ccc(C(C)n3ccc4c(F)ccc(C(=O)NC5CC6(C5)CC(C(=O)O)C6)c43)cc2)c1 (single isomer, unassigned) [Example 128]
[b] CC(c1ccc(-c2ccccc2)cc1)n1ncc2cc(Cl)cc(C(=O)NC3CC4(C3)CC(C(=O)O)C4)c21 (single isomer, unassigned) [Example 174]
Hey, between a and b which has a smaller measured IC50? Record your answer as the label of the chosen record.
a

* * *

pIC50: −log10 of the molar value.
Lab note: pIC50 readings collected with EP2 (Homo sapiens) for the following molecules.
experimental endpoint: pIC50

[a] CC(c1ccc(N2C[C@H]3C[C@H]3C2)cc1)n1ncc2c(Cl)ccc(C(=O)NC3CC4(C3)CC(C(=O)O)C4)c21 (mixture of isomers) [Example 77]
[b] O=C(NC1CC2(C1)CC(C(=O)O)C2)c1cc(OC(F)F)cc2cnn(Cc3ccc(-c4ccccc4)cc3)c12 (stereo not drawn) [Example 163]
Hey, between a and b which has a smaller measured pIC50? Record your answer as the label of the chosen record.
a

* * *

study target: EP2 (Homo sapiens)
assay protocol: cell-based
pIC50: −log10 of the molar value.
experimental endpoint: pIC50

compound | pIC50
O=C(NC1CC2(C1)CC(C(=O)O)C2)c1ccc(Cl)c2ccn(Cc3ccc(N4CCOCC4)cc3)c12 (centres unmarked) | 7.03

[1] COc1cc(-c2ccc(Cn3ncc4c(Cl)ccc(C(=O)NC5CC6(C5)CC(C(=O)O)C6)c43)cc2)ccn1 (centres unmarked)
[2] O=C(NC1CC2(C1)CC(C(=O)O)C2)c1ccc(F)c2ccn(Cc3ccc(OC(F)(F)F)cc3)c12 (centres unmarked) [Example 8]
[3] [2H]C([2H])([2H])C([2H])(c1ccc(-c2ccccc2)cc1)n1ncc2c(Cl)ccc(C(=O)NC3CC4(C3)CC(C(=O)O)C4)c21 (racemic) [Example 166]
# rank by pIC50, ascending (min first) Dear reader, please state the labels in the requested order.
1, 2, 3

* * *

study target: EP4 (Homo sapiens)
Sequence (P35408 whole entry): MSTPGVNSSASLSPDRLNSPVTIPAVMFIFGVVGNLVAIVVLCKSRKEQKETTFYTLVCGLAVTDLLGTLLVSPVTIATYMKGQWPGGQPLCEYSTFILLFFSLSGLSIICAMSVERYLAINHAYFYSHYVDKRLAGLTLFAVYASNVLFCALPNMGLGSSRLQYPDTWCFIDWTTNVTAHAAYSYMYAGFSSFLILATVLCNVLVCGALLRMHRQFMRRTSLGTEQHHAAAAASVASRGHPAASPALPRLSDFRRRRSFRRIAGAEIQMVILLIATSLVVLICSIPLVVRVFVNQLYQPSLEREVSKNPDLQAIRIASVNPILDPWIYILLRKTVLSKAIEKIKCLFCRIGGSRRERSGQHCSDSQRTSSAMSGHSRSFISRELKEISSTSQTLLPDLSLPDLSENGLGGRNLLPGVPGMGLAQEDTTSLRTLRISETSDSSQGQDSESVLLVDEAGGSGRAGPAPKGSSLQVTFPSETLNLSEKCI
assay protocol: Functional calcium flux assay, EP4
particulars: stably transfected HEK293 cells; PGE2 10 nM; read-out: EP4 Ca2+-flux assay IC50
pIC50: −log10 of the molar value.
Each entry below carries its reported pIC50.

Which pIC50 value belongs to COc1cc(C#N)cc(-c2ccc(Cn3ccc4c(F)ccc(C(=O)NC5CC6(C5)CC(C(=O)O)C6)c43)cc2)n1 (centres unmarked) ?
8.60

Which pIC50 value belongs to CCOc1cc(-c2ccc(Cn3ncc4c(Cl)ccc(C(=O)NC5CC6(C5)CC(C(=O)O)C6)c43)cc2)ccn1 (centres unmarked) ?
> 9.00

* * *

study target: EP2 (Homo sapiens, UniProt P43116);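 note: functional calcium flux assay in stably transfected HEK293 cells expressing EP2 coupled via a promiscuous G protein, clytin luminescence read as area under the curve, 30 min compound preincubation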
assay protocol: cell-based
experimental endpoint: IC50 (nM)

[a] CNC(=O)c1cc(-c2ccc(Cn3ncc4c(Cl)ccc(C(=O)NC5CC6(C5)CC(F)(C(=O)O)C6)c43)cc2)ccn1 (racemic)
[b] N#Cc1ccc(-c2ccc(Cn3ccc4c(F)ccc(C(=O)NC5CC6(C5)CC(C(=O)O)C6)c43)cc2)cc1 (racemic)
Select the item with the higher value of IC50 from the options a and b listed. Record your answer as the label of the chosen record.
a

* * *

Lab note: pIC50 readings collected with UniProtKB P43116 for the following molecules.
pIC50: −log10 of the molar value.
experimental endpoint: pIC50

molecule | experimental endpoint | val
N#Cc1cccc(-c2ccc(Cn3ncc4c(Cl)ccc(C(=O)NC5CC6(C5)CC(C(=O)O)C6)c43)cc2)c1 (stereo not shown) | pIC50 | 7.26

[A] O=C(NC1CC2(C1)CC(C(=O)O)C2)c1ccc(Cl)c2cnn(Cc3ccc(-c4cccc(OC(F)(F)F)n4)cc3)c12 (stereo not shown)
[B] CCOc1ccc(-c2ccc(Cn3ccc4c(OC)ncc(C(=O)NC5CC6(C5)CC(C(=O)O)C6)c43)cc2)cn1 (stereo not shown)
[C] O=C(NC1CC2(C1)CC(C(=O)O)C2)c1ccc(F)c2ccn(Cc3ccc(-c4cccc(OC5COC5)c4)cc3)c12 (stereo not shown)
# sort list by recorded pIC50, greatest to least Dear reader, please state the labels in the requested order.
A, B, C

* * *

study target: UniProt:P35408
assay protocol: Functional calcium flux assay, EP4
particulars: stably transfected HEK293 cells; PGE2 10 nM; read-out: EP4 Ca2+-flux assay IC50
pIC50: −log10 of the molar value.
experimental endpoint: pIC50

compound | pIC50
COc1c(Cl)cc(C(=O)NC2CC3(CC(CC(=O)O)C3)C2)c2c1cnn2Cc1ccc(-c2ccccc2)cc1 (stereo not drawn) [Example 171] | 8.85

[A] O=C(O)CC1CC2(C1)CC(NC(=O)c1ccc(OC(F)F)c3cnn(Cc4ccc(-c5ccccc5)cc4)c13)C2 (stereo not drawn) [Example 162]
[B] CC(c1ccc(-c2ccccc2)cc1)n1ncc2c(Cl)ccc(C(=O)NC3CC4(C3)CC(C(=O)O)C4)c21 (racemic) [Example 121]
[C] COc1cc(-c2ccc(Cn3ncc4cc(Cl)cc(C(=O)NC5CC6(C5)CC(C(=O)O)C6)c43)cc2F)ccn1 (stereo not drawn) [Example 154]
# rank by pIC50, ascending (min first) Dear reader, please state the labels in the requested order.
B, C, A
(B: 8.18, C: 8.55, A: 8.92)

* * *

pIC50: −log10 of the molar value.
Lab note: pIC50 readings collected with UniProt:P43116 for the following compounds.

compound | pIC50
COc1cc(-c2ccc(Cn3ncc4cc(Cl)cc(C(=O)NC5CC6(C5)CC(C(=O)O)C6)c43)cc2F)ccn1 (stereo not drawn) | > 7.60
COc1cccc(-c2ccc(C(C)n3ncc4c(Cl)ccc(C(=O)NC5CC6(C5)CC(C(=O)O)C6)c43)cc2)c1 (racemic) | > 7.60

Continue with the compound presented below.
Which pIC50 value belongs to CC(c1ccc(-c2ccccc2)cc1)n1ncc2cc(Cl)cc(C(=O)NC3CC4(C3)CC(C(=O)O)C4)c21 (single isomer, unassigned) [Example 174] ?
> 7.60

* * *

study target: UniProt:P43116
assay protocol: cell-based
pIC50: −log10 of the molar value.
Each entry below carries its reported pIC50.

molecule | study target | val
CC(C)(C)c1ccc(Cn2ccc3c(Cl)ccc(C(=O)NC4CC5(C4)CC(C(=O)O)C5)c32)cc1 (racemic) | UniProt:P43116 | > 7.60

Which pIC50 value belongs to COc1cccc(-c2ccc(Cn3ccc4c(OC)ncc(C(=O)NC5CC6(C5)CC(C(=O)O)C6)c43)cc2)n1 (stereo not shown) ?
> 7.60

Which pIC50 value belongs to COc1ccc2cc(-c3ccc(Cn4ccc5c(F)ccc(C(=O)NC6CC7(CC(CC(=O)O)C7)C6)c54)cc3)ccc2n1 (single isomer, unassigned) [Example 140] ?
> 7.60

Which pIC50 value belongs to CC(c1ccc(-c2ccccc2)cc1)n1ncc2c(Cl)ccc(C(=O)NC3CC4(C3)CC(C(=O)O)C4)c21 (single isomer, unassigned) [Example 130] ?
> 7.60

Which pIC50 value belongs to COc1ccc(-c2ccc(Cn3ccc4c(F)ccc(C(=O)NC5CC6(C5)CC(C(=O)O)C6)c43)cc2)cc1F (racemic) ?
> 7.60

Which pIC50 value belongs to [2H]C([2H])([2H])Oc1cccc(-c2ccc(Cn3ccc4c(F)ccc(C(=O)NC5CC6(C5)CC(C(=O)O)C6)c43)cc2)c1 (stereo not shown) ?
> 7.60

Which pIC50 value belongs to O=C(NC1CC2(C1)CC(C(=O)O)C2)c1ccc(F)c2ccn(Cc3ccc4cc(F)ccc4c3)c12 (racemic) ?
> 7.60

Which pIC50 value belongs to O=C(NC1CC2(C1)CC(C(=O)O)C2)c1ccc(F)c2ccn(Cc3ccc(-c4ccccc4)c(F)c3)c12 (racemic) [Example 10] ?
> 7.60

Which pIC50 value belongs to COc1ncc(-c2ccc(Cn3ccc4c(F)ccc(C(=O)NC5CC6(C5)CC(C(=O)O)C6)c43)cc2)cc1Cl (racemic) ?
> 7.60

Which pIC50 value belongs to O=C(NC1CC2(C1)CC(C(=O)O)C2)c1ccc(F)c2ccn(Cc3ccc(-c4ccccc4)cc3F)c12 (stereo not shown) ?
> 7.60

Which pIC50 value belongs to COc1cc(C#N)cc(-c2ccc(Cn3ccc4c(F)ccc(C(=O)NC5CC6(C5)CC(C(=O)O)C6)c43)cc2)c1 (racemic) ?
> 7.60

Which pIC50 value belongs to CC(c1ccc(-c2ccccc2)cc1)n1ncc2cccc(C(=O)NC3CC4(C3)CC(C(=O)O)C4)c21 (racemic) [Example 112] ?
> 7.60

Which pIC50 value belongs to CC(c1ccc(-c2ccccc2)cc1)n1ncc2cccc(C(=O)NC3CC4(C3)CC(C(=O)O)C4)c21 (single isomer, unassigned) [Example 125] ?
> 7.60
